The reported numbers originate from PubChem BioAssay (NCI).

System: NCI-H460 lung
ASSAY_INFO: NCI tumour cell line growth inhibition, 48 h

{"MOLECULE": "CCOC(=O)c1cccc(NC(=O)CBr)c1", "TGI": "3.46 µM"}
{"MOLECULE": "O=[N+]([O-])c1ccc(Cl)cc1-n1nc(-c2ccccc2)cc1-c1ccccc1", "TGI": "> 100 µM"}
{"MOLECULE": "COc1cc(N(CCC#N)CCC#N)ccc1/C(N=Nc1ccc(C)cc1)=N/NC(=O)c1cc(Br)ccc1O", "TGI": "54.4 µM"}
{"MOLECULE": "COc1c(OC(C)=O)ccc(/C=C2\\N=C(C)OC2=O)c1[N+](=O)[O-]", "TGI": "> 100 µM"}
{"MOLECULE": "CCC1(OC(=O)CN2CCN(CCO)CC2)C(=O)OCc2c1cc1n(c2=O)Cc2cc3ccccc3nc2-1 (configuration not stated)", "TGI": "0.971 µM"}
{"MOLECULE": "O=C(O)C(Cc1ccc2c(c1)CCC2)(Cc1ccc2c(c1)CCC2)C(=O)O", "TGI": "> 100 µM"}
{"MOLECULE": "COC(=O)C1Cc2c([nH]c3ccccc23)C(c2cccc(O)c2)N1 (configuration not stated)", "TGI": "62 µM"}
{"MOLECULE": "O=C1/C(=C\\c2ccc(Cl)cc2)CN(C(=S)Nc2ccccc2)C/C1=C\\c1ccc(Cl)cc1", "TGI": "2.15 µM"}
{"MOLECULE": "NC(N)=NC(CC(=O)O)c1ccccc1 (configuration not stated)", "TGI": "> 100 µM"}
{"MOLECULE": "COc1ccc(-c2oc3cc(O)c(OC)c(O)c3c(=O)c2OC2OC(CO)C(O)C(O)C2O)cc1 (configuration not stated)", "TGI": "> 100 µM"}
{"MOLECULE": "CCOC(=O)c1cccc(=O)c(C(=O)OCC)c1", "TGI": "> 100 µM"}
{"MOLECULE": "CC(=O)[CH-]C(=O)c1ccccc1.CC(=O)[CH-]C(=O)c1ccccc1.CCN(CC)CC[O-].CCN(CC)CC[O-].Cl.[Ti+4]", "TGI": "> 100 µM"}
{"MOLECULE": "O/N=C1\\CCc2cc(-c3nc(C4CCNCC4)[nH]c3-c3ccncc3)ccc21", "TGI": "> 25 µM"}
{"MOLECULE": "O=c1[nH]c2cc(C(F)(F)F)ccc2nc1Cc1ccccc1", "TGI": "> 100 µM"}
{"MOLECULE": "N#C/C(=C\\c1c(-c2ccccc2)[nH]c2ccccc12)C(=O)c1ccc(Cl)cc1", "TGI": "11.6 µM"}
{"MOLECULE": "O=[N+]([O-])c1ccc(-c2ccc(/C=N/n3c(-c4ccc(Cl)cc4)n[nH]c3=S)o2)cc1", "TGI": "> 54.7 µM"}
{"MOLECULE": "COc1ccc(/C=C2/CCCC/C2=N/O)cc1", "TGI": "> 100 µM"}
{"MOLECULE": "CSCCC(NCc1c(O)ccc2ccc(=O)oc12)C(=O)O (configuration not stated)", "TGI": "> 100 µM"}
{"MOLECULE": "CCCCCCCCCCCCCCCCCCNC(=O)[C@H]1CSC(c2ccc(OC)c(F)c2)N1 (some centres not stated)", "TGI": "2.02 µM"}
{"MOLECULE": "C/C(=N\\N(C)C)c1sc(-n2nc(-c3ccccc3)cc2-c2ccccc2)nc1C", "TGI": "> 100 µM"}
{"MOLECULE": "O=c1c(Cl)nnc2sc3ccccc3n12", "TGI": "> 100 µM"}
{"MOLECULE": "O=[N+]([O-])c1ccc(Sc2ncccn2)c([N+](=O)[O-])c1", "TGI": "24.1 µM"}

###

Tested on: SF-295 CNS
ASSAY_INFO: NCI tumour cell line growth inhibition, 48 h
READOUT_NAME: TGI

{"MOLECULE": "COc1cc(C(=O)O)c([N+](=O)[O-])c(OC)c1OC", "RESULT": "> 100 µM"}
{"MOLECULE": "CC(CC(=O)CO[C@H]1[C@H](O)[C@@H](O)[C@@H](O)[C@@H]2NC(=O)c3c(cc4c(c3O)OCO4)[C@H]21)OC1OC(CO)C(O)C(O)C1O (stereo partly specified)", "RESULT": "5.65 µM"}
{"MOLECULE": "O=C1CC2CC=C[C@H]3c4cc5c(cc4C(=O)N1C23)OCO5 (stereo partly specified)", "RESULT": "> 50 µM"}
{"MOLECULE": "FC(F)(F)P1C2C=CC(CC2)C1(F)F (stereo unspecified)", "RESULT": "> 100 µM"}
{"MOLECULE": "Cn1c(=O)n2n(c1=O)Cc1cccc3cccc(c13)C2", "RESULT": "> 100 µM"}
{"MOLECULE": "CC(Cl)(/C=C/Cl)C(Cl)/C=C/C(Cl)(CCl)CBr (stereo unspecified)", "RESULT": "20.2 µM"}
{"MOLECULE": "C[C@H]1[C@H](OC(=O)CCC(=O)O)O[C@@H]2O[C@]3(C)CC[C@H]4[C@H](C)CC[C@@H]1[C@@]24OO3", "RESULT": "> 67.3 µM"}
{"MOLECULE": "O=C(O)C(Cc1ccc2c(c1)CCC2)(Cc1ccc2c(c1)CCC2)C(=O)O", "RESULT": "> 100 µM"}
{"MOLECULE": "CCC1(OC(=O)CN2CCN(CCO)CC2)C(=O)OCc2c1cc1n(c2=O)Cc2cc3ccccc3nc2-1 (stereo unspecified)", "RESULT": "15.6 µM"}
{"MOLECULE": "CC(C)=CC(=O)CC(=O)C(=O)Nc1ccc(C)c(C)c1", "RESULT": "> 100 µM"}
{"MOLECULE": "CC(O)c1c2c(cc3c1CC1(C3)Cc3cc4c(c(C(C)O)c3C1)CCC4)CCC2 (stereo unspecified)", "RESULT": "45.2 µM"}

###

Tested on: IGROV1 ovarian
ASSAY_INFO: NCI tumour cell line growth inhibition, 48 h; in the data active means GI50 below about 0.43 µM; inactive means the rest
Labels: 1 (yes) = active, 0 (no) = inactive

{"MOLECULE": "Nc1cccc2c1C(=O)N(C1CCC(=O)NC1=O)C2=O (stereo unspecified)", "MEASUREMENT_TARGET": "IGROV1 ovarian", "CATEGORY_LABEL": "0 (no)"}
{"MOLECULE": "COc1cc2c(cc1OC)C(=O)C(Br)CC2 (stereo unspecified)", "MEASUREMENT_TARGET": "IGROV1 ovarian", "CATEGORY_LABEL": "0 (no)"}
{"MOLECULE": "O=C(Nc1n[nH]c2nc(-c3ccco3)c(Br)cc12)C1CC1", "MEASUREMENT_TARGET": "IGROV1 ovarian", "CATEGORY_LABEL": "0 (no)"}
{"MOLECULE": "COc1ccccc1C(=O)/C=C/c1cc2cccc(OC)c2[nH]c1=O", "MEASUREMENT_TARGET": "IGROV1 ovarian", "CATEGORY_LABEL": "1 (yes)"}
{"MOLECULE": "CC(=O)c1ccc(Nc2cc(-n3ccnc3)nc3ccccc23)cc1", "MEASUREMENT_TARGET": "IGROV1 ovarian", "CATEGORY_LABEL": "0 (no)"}
{"MOLECULE": "COc1cc2c3c(n(C)c(=O)c2cc1OC)-c1cc2c(cc1/C3=C\\CCCCN)OCO2", "MEASUREMENT_TARGET": "IGROV1 ovarian", "CATEGORY_LABEL": "0 (no)"}
{"MOLECULE": "O=C(c1ccccc1)c1nn(-c2ccc(Cl)cc2)c2nc3nc(-c4ccccc4)cc(=O)n3nc12", "MEASUREMENT_TARGET": "IGROV1 ovarian", "CATEGORY_LABEL": "0 (no)"}
{"MOLECULE": "CCCCCCCCCCCCc1ccc(C(=O)/C=C/C(=O)O)cc1", "MEASUREMENT_TARGET": "IGROV1 ovarian", "CATEGORY_LABEL": "0 (no)"}
{"MOLECULE": "Cc1ccc(-c2c(C#N)c(N)nc(N3CCOCC3)c2C#N)o1", "MEASUREMENT_TARGET": "IGROV1 ovarian", "CATEGORY_LABEL": "0 (no)"}
{"MOLECULE": "O=C1C=C[C@]2(C[C@@H](c3cccc(C(F)(F)F)c3)O[C@@H](c3cccc(C(F)(F)F)c3)O2)O1", "MEASUREMENT_TARGET": "IGROV1 ovarian", "CATEGORY_LABEL": "0 (no)"}
{"MOLECULE": "Cn1cc(-c2ccc(=O)n(Cc3cccc(-c4ncc(OCCN5CCOCC5)cn4)c3)n2)cn1", "MEASUREMENT_TARGET": "IGROV1 ovarian", "CATEGORY_LABEL": "0 (no)"}
